SYSTEM: PcrV of P. aeruginosa strain PA103 (on TTSS-induced bacteria) (Pseudomonas aeruginosa strain PA103)
MEASUREMENT PROTOCOL: cell-based or functional assay
QUANTITY NAME: IC50 (nM), P3X63 cytotoxicity assay, MOI 3

BINDER	COMPARISON OPERATOR	MEASUREMENT
Fab 13.37 (Fab, V domains shown) VH: QVQLVESGGGVVQPGRSLRLSCAASGFTFSSYPLHWVRQAPGKGLEWVSFISYDGSEKYYASSVKGRFTISRDNSENTLYLQMNSLRPEDTAVYYCARNRGDIYYDFTYAMDIWGQGTMVTVSS VL: DIQMTQSPSSLSASVGDRVTITCRASQSISRWVAWYQQRPGKAPNLLIYDASSLKSGVPSRFSGSGSGTEFTLTISSLQPEDIATYYCQQFWGTPYTFGQGTKLEIKR	=	1
Nanobody 14B10 (VHH) VHH: EVQLVESGGGLVQPGGSLRLSCAASGRIFSINNMGWYHQAPGKQRELVATITMNGITTYADSVKGRFTISRDNAKNTVYLQMNSLKPEDTAVYYCSCWVRSSGGDPYRDYWGQGTQVTVSS	>	3000
Nanobody 11B09 (VHH) VHH: EVQLVESGGGLVQAGGSLRLSCAASRLTFNHYNMGWFRQAPGKERERVAEVTWSGDKIYYVDSVKGRFTISRDNTPNPVYLYLQMNSLKPEDTAVYYCATAPRGLPYANGYWGQGTQVTVSS	=	100
Nanobody 14E10 (VHH) VHH: EVQLVESGGGLVQPGGSLRLSCAASGRIFSINTMGWYRQAPGKQRELVAGVTINAITNYADSVKGRFTISRDNAKNTVWLQMNSLKPEDTAVYYCHAWARSSGSAPYSQNWGQGTQVTVSS	>	3000
Nanobody 6B05 (VHH, also called 06B05) VHH: EVQLVESGGGLVQPGGSLRLSCAASGSIFSINTMGWYRQAPGKQRELVSTITSNLVPHYADSVQGRFTISRDNARNTVYLQMNSLKPQDTAHYYCNAWARSSGATPYTNYWGQGTLVTVSS	=	435
Nanobody 10C05 (VHH) VHH: EVQLVESGGGLVQPGGSLRLSCAASGSIFSINTMGWYRQAPGKQRDLVASITMNQVPNYADSVQGRFTISRDNVRNTVHLQMNAVKPEDTADYFCNAWVRSSGASPYTNYWGQGTQVTVSS	>	1000
